B1: Aspartate aminotransferase, P00509 (parent)
chain: MFENITAAPADPILGLADLFRADERPGKINLGIGVYKDETGKTPVLTSVKKAEQYLLENETTKNYLGIDGIPEFGRCTQELLFGKGSALINDKRARTAQTPGGTGALRVAADFLAKNTSVKRVWVSNPSWPNHKSVFNSAGLEVREYAYYDAENHTLDFDALINSLNEAQAGDVVLFHGCCHNPTGIDPTLEQWQTLAQLSVEKGWLPLFDFAYQGFARGLEEDAEGLRAFAAMHKELIVASSYSKNFGLYNERVGACTLVAADSETVDRAFSQMKAAIRANYSNPPAHGASVVATILSNDALRAIWEQELTDMRQRIQRMRQLFVNTLQEKGANRDFSFIIKQNGMFSFSGLTKEQVLRLREEFGVYAVASGRVNVAGMTPDNMAPLCEAIVAVL

Variants of: B1
condition.set: Escherichia coli (strain K12); pH 7.5; 25 °C; Urea; enzyme activity; potassium phosphate 20 mM; structure 1AMQ; whole UniProt chain shown
Quick reference for unfolding free energy among some variants

mutant: C180F
unfolding free energy (kcal/mol): 8.4
//
mutant: C180Y
unfolding free energy (kcal/mol): 7.7
//
mutant: C180S
unfolding free energy (kcal/mol): 8.1
//
mutant: C180W
unfolding free energy (kcal/mol): 6.1
